# Test system: Parabacteroides distasonis
# Assay Name: Antimicrobial activity against Parabacteroides distasonis by agar dilution method in presence of 5% laked sheep blood
# Assay type: functional
Reported Property: MIC90 (µg/mL)
Give bare numbers, in µg/mL.

Known results for molecules:
# Molecule, Units, MIC90
rows = [
    ("C[C@@H](O)[C@H]1C(=O)N2C(C(=O)O)=C(S[C@@H]3CN[C@H](CNS(N)(=O)=O)C3)[C@H](C)[C@H]12 [DORIPENEM]", "µg/mL", 4),
    ("CC(=N)N1CC[C@H](SC2=C(C(=O)O)N3C(=O)[C@H]([C@@H](C)O)[C@H]3C2)C1", "µg/mL", 4),
]

Please report MIC90 for every entry that follows.
1. C[C@@H](O)[C@H]1C(=O)N2C(C(=O)O)=C(S[C@H]3C[C@@H](C(=O)N4CC[C@H](NC(=O)CNC(=N)N)C4)N(C)C3)[C@H](C)[C@H]12 [TOMOPENEM]
2. C[C@@H](O)[C@H]1C(=O)N2C(C(=O)O)=C(S[C@@H]3CN[C@H](C(=O)N(C)C)C3)[C@H](C)[C@H]12 [MEROPENEM]
3. Cc1ncc([N+](=O)[O-])n1CCO [METRONIDAZOLE]

A)
[4, 4, 1]

---

# System: Bacteroides uniformis
# Assay Name: Antimicrobial activity against Bacteroides uniformis by agar dilution method in presence of 5% laked sheep blood
# Format: functional
Reported Property: MIC50 (mg/L)
Answers are plain numbers, in mg/L.

# Record Smiles, Measured Value
rows = [
    ("CC(=N)N1CC[C@H](SC2=C(C(=O)O)N3C(=O)[C@H]([C@@H](C)O)[C@H]3C2)C1", 1),
    ("C[C@@H](O)[C@H]1C(=O)N2C(C(=O)O)=C(S[C@@H]3CN[C@H](CNS(N)(=O)=O)C3)[C@H](C)[C@H]12", 0.5),
    ("C[C@@H](O)[C@H]1C(=O)N2C(C(=O)O)=C(S[C@@H]3CN[C@H](C(=O)N(C)C)C3)[C@H](C)[C@H]12", 0.25),
    ("C[C@@H](O)[C@H]1C(=O)N2C(C(=O)O)=C(S[C@H]3C[C@@H](C(=O)N4CC[C@H](NC(=O)CNC(=N)N)C4)N(C)C3)[C@H](C)[C@H]12", 0.5),
]

Per the records, this compound ( Cc1ncc([N+](=O)[O-])n1CCO ) has MIC50 equal to 0.5

---

Give MIC for every item shown.
# Test system: Lactobacillus salivarius
# Assay Name: Antimicrobial activity against Lactobacillus salivarius subsp. salivarius JCM 1231 by agar dilution method in presence of 5% laked sheep blood
# Type: functional
# Protocol Conditions: Ligilactobacillus salivarius

# Record Smiles, Measurement Target, MIC
measured = [
    ("C[C@@H](O)[C@H]1C(=O)N2C(C(=O)O)=C(S[C@@H]3CN[C@H](CNS(N)(=O)=O)C3)[C@H](C)[C@H]12", "Lactobacillus salivarius", "0.5 µg/mL"),
    ("CC(=N)N1CC[C@H](SC2=C(C(=O)O)N3C(=O)[C@H]([C@@H](C)O)[C@H]3C2)C1", "Lactobacillus salivarius", "0.25 µg/mL"),
    ("C[C@@H](O)[C@H]1C(=O)N2C(C(=O)O)=C(S[C@@H]3CN[C@H](C(=O)N(C)C)C3)[C@H](C)[C@H]12", "Lactobacillus salivarius", "1 µg/mL"),
    ("Cc1ncc([N+](=O)[O-])n1CCO", "Lactobacillus salivarius", "> 128 µg/mL"),
    ("CCC[C@@H]1C[C@@H](C(=O)N[C@@H]([C@H]2O[C@H](SC)[C@H](O)[C@@H](O)[C@H]2O)[C@H](C)Cl)N(C)C1", "Lactobacillus salivarius", "0.06 µg/mL"),
]

The record that follows has no MIC shown yet.
Entry C[C@@H](O)[C@H]1C(=O)N2C(C(=O)O)=C(S[C@H]3C[C@@H](C(=O)N4CC[C@H](NC(=O)CNC(=N)N)C4)N(C)C3)[C@H](C)[C@H]12 , tested on Lactobacillus salivarius, has a reported MIC of 0.5 µg/mL

---

# System: Peptoniphilus asaccharolyticus
# Assay Name: Antimicrobial activity against Peptoniphilus asaccharolyticus by agar dilution method in presence of 5% laked sheep blood
# Format: functional
Reported Property: MIC50 (µg/mL)
Give bare numbers, in µg/mL.

# Record Smiles, MIC50, µg/mL
data = [
    ("Cc1ncc([N+](=O)[O-])n1CCO", 1),
]

Per the records, this molecule ( CC(=N)N1CC[C@H](SC2=C(C(=O)O)N3C(=O)[C@H]([C@@H](C)O)[C@H]3C2)C1 ) has MIC50 equal to 0.03

---

# Tested on: Bilophila wadsworthia
# Assay Name: Antimicrobial activity against Bilophila wadsworthia WAL 7959 by agar dilution method in presence of 5% laked sheep blood
# Format: functional
Reported Property: MIC (µg/mL)
One number for each entry, in µg/mL.

Known results for compounds:
# Compound, Measured Value
measured = [
    ("Cc1ncc([N+](=O)[O-])n1CCO [METRONIDAZOLE]", 0.06),
    ("C[C@@H](O)[C@H]1C(=O)N2C(C(=O)O)=C(S[C@@H]3CN[C@H](C(=O)N(C)C)C3)[C@H](C)[C@H]12 [MEROPENEM]", 0.03),
    ("C[C@@H](O)[C@H]1C(=O)N2C(C(=O)O)=C(S[C@H]3C[C@@H](C(=O)N4CC[C@H](NC(=O)CNC(=N)N)C4)N(C)C3)[C@H](C)[C@H]12 [TOMOPENEM]", 0.125),
    ("CC(=N)N1CC[C@H](SC2=C(C(=O)O)N3C(=O)[C@H]([C@@H](C)O)[C@H]3C2)C1", 0.5),
    ("CCC[C@@H]1C[C@@H](C(=O)N[C@@H]([C@H]2O[C@H](SC)[C@H](O)[C@@H](O)[C@H]2O)[C@H](C)Cl)N(C)C1 [CLINDAMYCIN]", 0.5),
]

The record that follows has no MIC shown yet.
Per the records, this compound ( C[C@@H](O)[C@H]1C(=O)N2C(C(=O)O)=C(S[C@@H]3CN[C@H](CNS(N)(=O)=O)C3)[C@H](C)[C@H]12 [DORIPENEM] ) has MIC equal to 0.06

---

# Test system: Cutibacterium acnes
# Assay Name: Antimicrobial activity against Propionibacterium acnes ATCC 11828 by agar dilution method in presence of 5% laked sheep blood
# Format: functional
Reported Property: MIC (µg/mL)
Numbers only, in µg/mL.

Known results for compounds:
# Compound, MIC, µg/mL
data = [
    ("CCC[C@@H]1C[C@@H](C(=O)N[C@@H]([C@H]2O[C@H](SC)[C@H](O)[C@@H](O)[C@H]2O)[C@H](C)Cl)N(C)C1 [CLINDAMYCIN]", 0.125),
    ("CC(=N)N1CC[C@H](SC2=C(C(=O)O)N3C(=O)[C@H]([C@@H](C)O)[C@H]3C2)C1", 0.125),
    ("C[C@@H](O)[C@H]1C(=O)N2C(C(=O)O)=C(S[C@@H]3CN[C@H](C(=O)N(C)C)C3)[C@H](C)[C@H]12 [MEROPENEM]", 2),
    ("C[C@@H](O)[C@H]1C(=O)N2C(C(=O)O)=C(S[C@@H]3CN[C@H](CNS(N)(=O)=O)C3)[C@H](C)[C@H]12 [DORIPENEM]", 1),
]

The record that follows has no MIC shown yet.
Per the records, this compound ( C[C@@H](O)[C@H]1C(=O)N2C(C(=O)O)=C(S[C@H]3C[C@@H](C(=O)N4CC[C@H](NC(=O)CNC(=N)N)C4)N(C)C3)[C@H](C)[C@H]12 [TOMOPENEM] ) has MIC equal to 1

---

# Tested on: Bifidobacterium pseudolongum
# Assay Name: Antimicrobial activity against Bifidobacterium pseudolongum ATCC 25526 by agar dilution method in presence of 5% laked sheep blood
# Type: functional
Give MIC for every item shown.
Numbers only, in µg/mL.

Please report MIC for every entry that follows.
1. C[C@@H](O)[C@H]1C(=O)N2C(C(=O)O)=C(S[C@@H]3CN[C@H](C(=O)N(C)C)C3)[C@H](C)[C@H]12 [MEROPENEM]
2. C[C@@H](O)[C@H]1C(=O)N2C(C(=O)O)=C(S[C@H]3C[C@@H](C(=O)N4CC[C@H](NC(=O)CNC(=N)N)C4)N(C)C3)[C@H](C)[C@H]12 [TOMOPENEM]

A)
0.25
0.125

Please report MIC for every entry that follows.
1. CC(=N)N1CC[C@H](SC2=C(C(=O)O)N3C(=O)[C@H]([C@@H](C)O)[C@H]3C2)C1
2. C[C@@H](O)[C@H]1C(=O)N2C(C(=O)O)=C(S[C@@H]3CN[C@H](CNS(N)(=O)=O)C3)[C@H](C)[C@H]12 [DORIPENEM]

A)
[0.25, 0.5]
